These measurements were taken from ChEMBL document CHEMBL4689842.

system: U2OS; experiment: Multiplex assay against U2OS; type: toxicity, cell-based; conditions: human, 12 h, 10 µM, compound concentration 10 uM, replicate 1

>  <COMPOUND>
Cl.Cn1c2c(c3ccc(Cl)c(Cl)c31)C(C#N)C1(CCNCC1)NC2=O (stereo not drawn)

>  <TARGET UNDER TEST>
U2OS

>  <Total Cell Count>
183

$$$$
>  <COMPOUND>
Cc1ccc(S(=O)(=O)NC2c3ccccc3Oc3ccccc32)cc1

>  <TARGET UNDER TEST>
U2OS

>  <Total Cell Count>
507

$$$$
>  <COMPOUND>
CCCc1cc(C)[nH]c(=O)c1CNC(=O)c1cc(-c2ccc(N3CCN(C(C)C)CC3)nc2)cc2c1cnn2C(C)C

>  <TARGET UNDER TEST>
U2OS

>  <Total Cell Count>
82

$$$$

---

tested on: Fibroblast; experiment: Multiplex assay against human fibroblast; type: toxicity, cell-based; conditions: 12 h, 10 µM, compound concentration 10 uM, replicate 1
Would you mind labelling by Population Membrane Permeable-Phenotype (%)? At or over 20% is T, under is F.

>  <MOLECULE>
Cc1c(P(=S)(c2ccccc2)c2ccccc2)n2ccccc2[n+]1C/C=C/c1ccccc1.[Br-]

>  <TARGET UNDER TEST>
Fibroblast

>  <CLASS NAME>
F

$$$$
>  <MOLECULE>
C[C@@H](Oc1cc(-n2cnc3ccc(CN4CCN(C)CC4)cc32)sc1C(N)=O)c1ccccc1C(F)(F)F [GSK-461364]

>  <TARGET UNDER TEST>
Fibroblast

>  <CLASS NAME>
T

$$$$
>  <MOLECULE>
CCCCN(CC)c1nc(C)nc2c1c(C)cn2-c1c(C)cc(C)cc1C.Cl

>  <TARGET UNDER TEST>
Fibroblast

>  <CLASS NAME>
T

$$$$
>  <MOLECULE>
CCCc1cc(C)[nH]c(=O)c1CNC(=O)c1cc(-c2ccc(N3CCN(C(C)C)CC3)nc2)cc2c1cnn2C(C)C

>  <TARGET UNDER TEST>
Fibroblast

>  <CLASS NAME>
F

$$$$
>  <MOLECULE>
CC[C@@]1(O)C(=O)OCc2c1cc1n(c2=O)Cc2cc3ccccc3nc2-1 [CAMPTOTHECIN]

>  <TARGET UNDER TEST>
Fibroblast

>  <CLASS NAME>
F

$$$$
>  <MOLECULE>
CC(C)c1cc(Nc2nc(N3CCC[C@H](N)C3)ncc2C(N)=O)cc(C(C)C)n1

>  <TARGET UNDER TEST>
Fibroblast

>  <CLASS NAME>
T

$$$$
>  <MOLECULE>
CC(C)C[C@H](NC(=O)[C@H](Cc1ccccc1)NC(=O)CNC(=O)CNC(=O)[C@@H](N)Cc1ccc(O)cc1)C(=O)O [ENKEPHALIN]

>  <TARGET UNDER TEST>
Fibroblast

>  <CLASS NAME>
T

$$$$
>  <MOLECULE>
CCOC(=O)CCNc1cc(N2CCc3ccccc3CC2)nc(-c2ccccn2)n1

>  <TARGET UNDER TEST>
Fibroblast

>  <CLASS NAME>
F

$$$$
>  <MOLECULE>
Cl.Cn1c2c(c3ccc(Cl)c(Cl)c31)C(C#N)C1(CCNCC1)NC2=O (stereo not drawn)

>  <TARGET UNDER TEST>
Fibroblast

>  <CLASS NAME>
F

$$$$
>  <MOLECULE>
CN1C(=O)[C@@H](NC(=O)c2cc3ccccc3[nH]2)N=C(c2ccccc2)c2ccccc21 [DEVAZEPIDE]

>  <TARGET UNDER TEST>
Fibroblast

>  <CLASS NAME>
T

$$$$
>  <MOLECULE>
CC(/C=C1\SC(=S)N(CCCC(=O)Nc2ccc(C(=O)O)c(O)c2)C1=O)=C\c1ccccc1

>  <TARGET UNDER TEST>
Fibroblast

>  <CLASS NAME>
T

$$$$
>  <MOLECULE>
N#Cc1cccc(C(=O)Nc2cc(-c3ccccc3)nn2-c2ccccc2)c1

>  <TARGET UNDER TEST>
Fibroblast

>  <CLASS NAME>
T

$$$$
>  <MOLECULE>
Cc1ccc(S(=O)(=O)NC2c3ccccc3Oc3ccccc32)cc1

>  <TARGET UNDER TEST>
Fibroblast

>  <CLASS NAME>
T

$$$$
>  <MOLECULE>
Cc1c(Nc2ccc(S(=O)(=O)N3CCN(C)CC3)cc2F)nc2ccc(Nc3cnn(C4CC4)c3)cn2c1=O

>  <TARGET UNDER TEST>
Fibroblast

>  <CLASS NAME>
F

$$$$
>  <MOLECULE>
Oc1cccc(-c2nc(N3CCOCC3)c3oc4ncccc4c3n2)c1 [PI-103]

>  <TARGET UNDER TEST>
Fibroblast

>  <CLASS NAME>
T

$$$$
>  <MOLECULE>
Cl.NC[C@@H]1O[C@H](C23CC4CC(CC(C4)C2)C3)Cc2c1ccc(O)c2O

>  <TARGET UNDER TEST>
Fibroblast

>  <CLASS NAME>
F

$$$$
>  <MOLECULE>
Cc1ccc(NC(=O)Nc2cc(C(F)(F)F)ccc2F)cc1Nc1ccc2c(c1)NC(=O)/C2=C\c1ccc[nH]1

>  <TARGET UNDER TEST>
Fibroblast

>  <CLASS NAME>
F

$$$$

---

system: Fibroblast; assay: Multiplex assay against human fibroblast; format: toxicity, cell-based; conditions: 48 h, 1 µM, compound concentration 1 uM, replicate 1
Threshold check on Population Apoptotic (%): strictly below 60% is Condition met; on or above 60% is Condition not met.

>  <COMPOUND>
CN1C(=O)[C@@H](NC(=O)c2cc3ccccc3[nH]2)N=C(c2ccccc2)c2ccccc21 [DEVAZEPIDE]

>  <CLASS NAME>
Condition met

$$$$
>  <COMPOUND>
CC(/C=C1\SC(=S)N(CCCC(=O)Nc2ccc(C(=O)O)c(O)c2)C1=O)=C\c1ccccc1

>  <CLASS NAME>
Condition not met

$$$$
>  <COMPOUND>
CCCCCNC(=N)N/N=C/c1c[nH]c2ccc(OC)cc12.O=C(O)/C=C\C(=O)O [TEGASEROD MALEATE]

>  <CLASS NAME>
Condition met

$$$$
>  <COMPOUND>
N#Cc1cccc(C(=O)Nc2cc(-c3ccccc3)nn2-c2ccccc2)c1

>  <CLASS NAME>
Condition met

$$$$
>  <COMPOUND>
C[C@@H](Oc1cc(-n2cnc3ccc(CN4CCN(C)CC4)cc32)sc1C(N)=O)c1ccccc1C(F)(F)F [GSK-461364]

>  <CLASS NAME>
Condition not met

$$$$
>  <COMPOUND>
Cl.NC[C@@H]1O[C@H](C23CC4CC(CC(C4)C2)C3)Cc2c1ccc(O)c2O

>  <CLASS NAME>
Condition not met

$$$$
>  <COMPOUND>
CN(c1cc(C(F)(F)F)nc(OCCC(=O)O)n1)c1cccc2c1CCC2

>  <CLASS NAME>
Condition met

$$$$
>  <COMPOUND>
CC(C)C[C@H](NC(=O)[C@H](Cc1ccccc1)NC(=O)CNC(=O)CNC(=O)[C@@H](N)Cc1ccc(O)cc1)C(=O)O [ENKEPHALIN]

>  <CLASS NAME>
Condition not met

$$$$

---

Listed below: Population Membrane Permeable-Phenotype (%) values for each entry.
tested on: Fibroblast; assay: Multiplex assay against human fibroblast; type: toxicity, cell-based; conditions: 12 h, 10 µM, compound concentration 10 uM, replicate 2
MEASUREMENT KIND: Population Membrane Permeable-Phenotype (%)

>  <MOLECULE>
CC(C)c1cc(Nc2nc(N3CCC[C@H](N)C3)ncc2C(N)=O)cc(C(C)C)n1

>  <VALUE UNITS>
%

>  <REPORTED VALUE>
100

$$$$
>  <MOLECULE>
CC[C@H](Nc1ncnc2[nH]cnc12)c1nc2cccc(F)c2c(=O)n1-c1ccccc1

>  <VALUE UNITS>
%

>  <REPORTED VALUE>
18

$$$$
>  <MOLECULE>
CCOc1ccn(-c2ccc(F)cc2)c(=O)c1C(=O)Nc1ccc(Oc2ccnc(N)c2Cl)c(F)c1

>  <VALUE UNITS>
%

>  <REPORTED VALUE>
4

$$$$
>  <MOLECULE>
CN1C(=O)[C@@H](NC(=O)c2cc3ccccc3[nH]2)N=C(c2ccccc2)c2ccccc21 [DEVAZEPIDE]

>  <VALUE UNITS>
%

>  <REPORTED VALUE>
37

$$$$
>  <MOLECULE>
CCCCCNC(=N)N/N=C/c1c[nH]c2ccc(OC)cc12.O=C(O)/C=C\C(=O)O [TEGASEROD MALEATE]

>  <VALUE UNITS>
%

>  <REPORTED VALUE>
100

$$$$
>  <MOLECULE>
CC(/C=C1\SC(=S)N(CCCC(=O)Nc2ccc(C(=O)O)c(O)c2)C1=O)=C\c1ccccc1

>  <VALUE UNITS>
%

>  <REPORTED VALUE>
6

$$$$
>  <MOLECULE>
N#CCNC(=O)c1ccc(-c2ccnc(Nc3ccc(N4CCOCC4)cc3)n2)cc1

>  <VALUE UNITS>
%

>  <REPORTED VALUE>
0

$$$$
>  <MOLECULE>
N#Cc1cccc(C(=O)Nc2cc(-c3ccccc3)nn2-c2ccccc2)c1

>  <VALUE UNITS>
%

>  <REPORTED VALUE>
15

$$$$
